Source: patent US20180371091A1

Molecular target: T1, human ICOS-hFc (homodimeric, bivalent) (human, UniProt Q9Y6W8 21-141)
T1 construct: also called hICOS-Fc; hICOS-hFc; not shown: human IgG1 Fc (IgG1 backbone)
T1 sequence: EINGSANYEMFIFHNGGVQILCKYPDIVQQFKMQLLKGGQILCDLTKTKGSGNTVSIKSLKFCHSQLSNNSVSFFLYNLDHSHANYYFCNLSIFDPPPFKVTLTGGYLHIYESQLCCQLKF
Assay: BLI (Octet RED96), full-length IgG vs homodimeric ICOS-Fc (avid)

[
  {
    "binder": "35A9 (antibody, V domains shown, Armenian hamster monoclonal tested as IgG; also called hamster anti-ICOS 35A9) VH: EVQLVESGGGLVKPGGSLKLSCAASGFTFSDYWMDWVRQAPGKGLEWVGNIDEDGSIAEYSPFVKGRFTISRDNVKNTLYLQMNSVKSEDTATYYCSRWGRFAFDSWGQGTLVTVSS VL: DIVMTQSPSSLAVSAGDRVTINCKSSQSLLSGSFNYLTWYQQKTGQAPKLLIFYASTRHTGVPDRFMGSGSGTDFTLTINSFQTEDLGDYYCHHHYNAPPTFGPGTKLELR",
    "unitLabel": "M⁻¹ s⁻¹",
    "kon": 625000
  },
  {
    "binder": "36E10 (antibody, V domains shown, Armenian hamster monoclonal tested as IgG; also called hamster anti-ICOS 36E10) VH: EVQLVESGGGLVKPGGSLKLSCAASGFTFSDYWMDWVRQAPGKGLEWVGNIDEDGSITEYSPFVKGRFTISRDNVKNILYLQMNSVKSEDTATYYCTRWGRFAFDSWGQGTLVTVSS VL: DIVMTQSPSSLAVSPGDRVTINCKSSQSLLSGSFHYLTWYQQKTGQAPKLLIFYASTRHTGVPDRFMGSGSGTDFTLTINSFQTEDLGDYYCHHHYNAPPTFGPGTKLELR",
    "unitLabel": "M⁻¹ s⁻¹",
    "kon": 626000
  },
  {
    "binder": "37A10 (antibody, V domains shown, Armenian hamster monoclonal tested as IgG; also called hamster anti-ICOS 37A10) VH: EVQLVESGGGLVKPGGSLKLSCAASGFTFSDYWMDWVRQAPGKGLEWVGNIDEDGSITEYSPFVKGRFTISRDNVKNTLYLQMNSVKSEDTATYYCTRWGRFGFDSWGQGTLVTVSS VL: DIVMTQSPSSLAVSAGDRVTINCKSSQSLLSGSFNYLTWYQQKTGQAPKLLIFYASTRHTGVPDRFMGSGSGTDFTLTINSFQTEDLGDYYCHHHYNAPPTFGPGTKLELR",
    "unitLabel": "M⁻¹ s⁻¹",
    "kon": 674000
  }
]
